Provenance of the data: the supplement of paper PMC10307832

# Tested on: NCI-H1651
# experimental details: relative viability (nuclei count vs DMSO), 5 days (fraction); higher = more cells survive
# particulars: first compound 1 µM
property: relative viability
Answers are plain numbers.

Example entries begin here.
| compound | experimental system | recorded result |
| --- | --- | --- |
| O=c1cc(N2CCOCC2)oc2c(-c3cccc4c3sc3ccccc34)cccc12 + CCNC(=O)c1noc(-c2cc(C(C)C)c(O)cc2O)c1-c1ccc(CN2CCOCC2)cc1 [Luminespib] (partner 0.01 µM) | NCI-H1651 | 0.807 |
| O=c1cc(N2CCOCC2)oc2c(-c3cccc4c3sc3ccccc34)cccc12 + O=C(c1cc(Cc2n[nH]c(=O)c3ccccc23)ccc1F)N1CCN(C(=O)C2CC2)CC1 [Olaparib] (partner 8 µM) | NCI-H1651 | 0.168 |
| CCN(CC)CCCCNc1ncc2cc(-c3cc(OC)cc(OC)c3)c(NC(=O)NC(C)(C)C)nc2n1 + O=C(c1cc(Cc2n[nH]c(=O)c3ccccc23)ccc1F)N1CCN(C(=O)C2CC2)CC1 [Olaparib] (partner 8 µM) | NCI-H1651 | 0.183 |
| O=c1cc(N2CCOCC2)oc2c(-c3cccc4c3sc3ccccc34)cccc12 + CS(=O)(=O)CCNCc1ccc(-c2ccc3ncnc(Nc4ccc(OCc5cccc(F)c5)c(Cl)c4)c3c2)o1 [Lapatinib] (partner 2 µM) | NCI-H1651 | 0.878 |
| CCN(CC)CCCCNc1ncc2cc(-c3cc(OC)cc(OC)c3)c(NC(=O)NC(C)(C)C)nc2n1 + CC(=O)c1c(C)c2cnc(Nc3ccc(N4CCNCC4)cn3)nc2n(C2CCCC2)c1=O [Palbociclib] (partner 0.5 µM) | NCI-H1651 | 0.47 |

Batch: relative viability for all items listed.
1. O=c1cc(N2CCOCC2)oc2c(-c3cccc4c3sc3ccccc34)cccc12 + Cc1nc(NC(=O)N2CCC[C@H]2C(N)=O)sc1-c1ccnc(C(C)(C)C(F)(F)F)c1 [Alpelisib] (partner 2 µM)
2. O=c1cc(N2CCOCC2)oc2c(-c3cccc4c3sc3ccccc34)cccc12 + COc1cccc2cc(-c3nc([C@H]4CC[C@H](C(=O)O)CC4)n4ncnc(N)c34)[nH]c12 [OSI-027] (partner 0.5 µM)

1. 1.01
2. 0.636

* * *

# Tested on: NCI-H1666
# experimental details: relative viability (nuclei count vs DMSO), 5 days (fraction); higher = more cells survive
# particulars: first compound 0.01 µM
Give measured relative viability for each item. Keep answers brief.

Example entries begin here.
| molecule | relative viability |
| --- | --- |
| O=c1cc(N2CCOCC2)oc2c(-c3cccc4c3sc3ccccc34)cccc12 + Nc1nc2[nH]cc(CCc3ccc(C(=O)N[C@@H](CCC(=O)O)C(=O)O)cc3)c2c(=O)[nH]1 [Pemetrexed] (partner 0.2 µM) | 0.944 |
| O=c1cc(N2CCOCC2)oc2c(-c3cccc4c3sc3ccccc34)cccc12 + Cc1nc(NC(=O)N2CCC[C@H]2C(N)=O)sc1-c1ccnc(C(C)(C)C(F)(F)F)c1 [Alpelisib] (partner 2 µM) | 0.936 |

Batch: relative viability for all items listed.
1. CCN(CC)CCCCNc1ncc2cc(-c3cc(OC)cc(OC)c3)c(NC(=O)NC(C)(C)C)nc2n1 + Cc1nc(Nc2ncc(C(=O)Nc3c(C)cccc3Cl)s2)cc(N2CCN(CCO)CC2)n1 [Dasatinib] (partner 0.075 µM)
2. O=c1cc(N2CCOCC2)oc2c(-c3cccc4c3sc3ccccc34)cccc12 + CS(=O)(=O)N1CCN(Cc2cc3nc(-c4cccc5[nH]ncc45)nc(N4CCOCC4)c3s2)CC1 [Pictilisib] (partner 1 µM)

0.824
0.443

* * *

# Tested on: NCI-H460
# experimental details: relative viability (nuclei count vs DMSO), 5 days (fraction); higher = more cells survive
# particulars: first compound 20 µM
Give measured relative viability for each item. Keep answers brief.
One number for each entry.

Example entries begin here.
| compound | relative viability |
| --- | --- |
| COCC1(CO)C(=O)C2CCN1CC2 (stereo not drawn) [PRIMA-1MET] + C[C@]1(O)C[C@@H](c2nc(-c3ccc4ccc(-c5ccccc5)nc4c3)c3c(N)nccn32)C1 [Linsitinib] (partner 1 µM) | 0.0038 |
| COCC1(CO)C(=O)C2CCN1CC2 (stereo not drawn) [PRIMA-1MET] + CC(=O)Nc1cccc(-n2c(=O)n(C3CC3)c(=O)c3c(Nc4ccc(I)cc4F)n(C)c(=O)c(C)c32)c1 [Trametinib] (partner 0.02 µM) | 0.0091 |
| COCC1(CO)C(=O)C2CCN1CC2 (stereo not drawn) [PRIMA-1MET] + Cc1nc(NC(=O)N2CCC[C@H]2C(N)=O)sc1-c1ccnc(C(C)(C)C(F)(F)F)c1 [Alpelisib] (partner 2 µM) | 0.0038 |
| COCC1(CO)C(=O)C2CCN1CC2 (stereo not drawn) [PRIMA-1MET] + Nc1nc2[nH]cc(CCc3ccc(C(=O)N[C@@H](CCC(=O)O)C(=O)O)cc3)c2c(=O)[nH]1 [Pemetrexed] (partner 0.2 µM) | 0.0386 |
| COCC1(CO)C(=O)C2CCN1CC2 (stereo not drawn) [PRIMA-1MET] + CS(=O)(=O)CCNCc1ccc(-c2ccc3ncnc(Nc4ccc(OCc5cccc(F)c5)c(Cl)c4)c3c2)o1 [Lapatinib] (partner 2 µM) | 0.0047 |

Batch: relative viability for all items listed.
1. COCC1(CO)C(=O)C2CCN1CC2 (stereo not drawn) [PRIMA-1MET] + NC(=O)Nc1cc(-c2cccc(F)c2)sc1C(=O)N[C@H]1CCCNC1 [AZD7762] (partner 0.2 µM)
2. COCC1(CO)C(=O)C2CCN1CC2 (stereo not drawn) [PRIMA-1MET] + COc1cccc2cc(-c3nc([C@H]4CC[C@H](C(=O)O)CC4)n4ncnc(N)c34)[nH]c12 [OSI-027] (partner 0.5 µM)
3. COCC1(CO)C(=O)C2CCN1CC2 (stereo not drawn) [PRIMA-1MET] + CC(=O)c1c(C)c2cnc(Nc3ccc(N4CCNCC4)cn3)nc2n(C2CCCC2)c1=O [Palbociclib] (partner 0.5 µM)

1. 0.251
2. 0.0164
3. 0.0061

* * *

# Tested on: SK-MES-1
# experimental details: relative viability (nuclei count vs DMSO), 5 days (fraction); higher = more cells survive
# particulars: first compound 1 µM
Give measured relative viability for each item. Keep answers brief.

| molecule | relative viability |
| --- | --- |
| CCN(CC)CCCCNc1ncc2cc(-c3cc(OC)cc(OC)c3)c(NC(=O)NC(C)(C)C)nc2n1 + CC(=O)Nc1cccc(-n2c(=O)n(C3CC3)c(=O)c3c(Nc4ccc(I)cc4F)n(C)c(=O)c(C)c32)c1 [Trametinib] (partner 0.02 µM) | 0.512 |

Switching to the query record.
Name the recorded relative viability for O=c1cc(N2CCOCC2)oc2c(-c3cccc4c3sc3ccccc34)cccc12 + CS(=O)(=O)N1CCN(Cc2cc3nc(-c4cccc5[nH]ncc45)nc(N4CCOCC4)c3s2)CC1 [Pictilisib] (partner 1 µM) .
0.362

* * *

# Test system: A-427
# experimental details: relative viability (nuclei count vs DMSO), 5 days (fraction); higher = more cells survive
# particulars: first compound 0.2 µM
property: relative viability
Give bare numbers.

Example entries begin here.
| compound | relative viability |
| --- | --- |
| COCC1(CO)C(=O)C2CCN1CC2 (stereo not given) [PRIMA-1MET] + CC(C)C[C@H](NC(=O)[C@H](Cc1ccccc1)NC(=O)c1cnccn1)B(O)O [Bortezomib] (partner 0.002 µM) | 1.09 |
| COCC1(CO)C(=O)C2CCN1CC2 (stereo not given) [PRIMA-1MET] + CS(=O)(=O)CCNCc1ccc(-c2ccc3ncnc(Nc4ccc(OCc5cccc(F)c5)c(Cl)c4)c3c2)o1 [Lapatinib] (partner 2 µM) | 1.08 |
| COCC1(CO)C(=O)C2CCN1CC2 (stereo not given) [PRIMA-1MET] + NC(=O)Nc1cc(-c2cccc(F)c2)sc1C(=O)N[C@H]1CCCNC1 [AZD7762] (partner 0.2 µM) | 0.741 |
| COCC1(CO)C(=O)C2CCN1CC2 (stereo not given) [PRIMA-1MET] + COc1cc2c(Oc3ccc(NC(=O)C4(C(=O)Nc5ccc(F)cc5)CC4)cc3F)ccnc2cc1OCCCN1CCOCC1 [Foretinib] (partner 0.25 µM) | 0.902 |
| COCC1(CO)C(=O)C2CCN1CC2 (stereo not given) [PRIMA-1MET] + COc1cccc2cc(-c3nc([C@H]4CC[C@H](C(=O)O)CC4)n4ncnc(N)c34)[nH]c12 [OSI-027] (partner 0.5 µM) | 0.284 |
| COCC1(CO)C(=O)C2CCN1CC2 (stereo not given) [PRIMA-1MET] + CS(=O)(=O)N1CCN(Cc2cc3nc(-c4cccc5[nH]ncc45)nc(N4CCOCC4)c3s2)CC1 [Pictilisib] (partner 1 µM) | 0.255 |

Batch: relative viability for all items listed.
1. COCC1(CO)C(=O)C2CCN1CC2 (stereo not given) [PRIMA-1MET] + C[C@@H](Oc1cc(-c2cnn(C3CCNCC3)c2)cnc1N)c1c(Cl)ccc(F)c1Cl [Crizotinib] (partner 1 µM)
2. COCC1(CO)C(=O)C2CCN1CC2 (stereo not given) [PRIMA-1MET] + Cc1nc(NC(=O)N2CCC[C@H]2C(N)=O)sc1-c1ccnc(C(C)(C)C(F)(F)F)c1 [Alpelisib] (partner 2 µM)

[0.935, 1.04]

Batch: relative viability for all items listed.
1. COCC1(CO)C(=O)C2CCN1CC2 (stereo not given) [PRIMA-1MET] + N=C(N)NC(=N)NCCc1ccccc1 [Phenformin] (partner 250 µM)
2. COCC1(CO)C(=O)C2CCN1CC2 (stereo not given) [PRIMA-1MET] + O=C(CCCCCCC(=O)Nc1ccccc1)NO [Vorinostat] (partner 1 µM)

0.221
1.1
